system_under_test: Muscarinic acetylcholine receptor M5 (Homo sapiens)
Sequence (P08912 whole entry): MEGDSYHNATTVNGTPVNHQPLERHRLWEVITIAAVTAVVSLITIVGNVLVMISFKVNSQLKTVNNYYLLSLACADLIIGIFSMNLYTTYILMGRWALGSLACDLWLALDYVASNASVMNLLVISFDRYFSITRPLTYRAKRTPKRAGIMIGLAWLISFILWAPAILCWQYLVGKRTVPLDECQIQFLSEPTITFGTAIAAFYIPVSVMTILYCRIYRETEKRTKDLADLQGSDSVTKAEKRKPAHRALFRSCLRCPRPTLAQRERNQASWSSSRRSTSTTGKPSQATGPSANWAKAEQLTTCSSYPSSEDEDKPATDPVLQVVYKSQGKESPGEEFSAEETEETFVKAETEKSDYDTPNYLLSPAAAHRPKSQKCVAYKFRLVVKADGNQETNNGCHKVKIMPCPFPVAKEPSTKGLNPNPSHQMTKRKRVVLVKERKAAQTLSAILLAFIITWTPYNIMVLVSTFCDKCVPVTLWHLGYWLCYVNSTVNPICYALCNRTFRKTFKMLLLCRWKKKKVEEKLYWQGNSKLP
pKi: −log10 of the molar value.
parameter_measured: pKi

                                   compound                         system_under_test  assay_value
0  CN1[C@@H]2CC[C@H]1C[C@@H](OC(=O)N(c1ccccc1)c1ccccc1)C2  Muscarinic acetylcholine receptor M5 (Homo sapiens)       < 6.00
1  CN1[C@@H]2C[C@@H]3C[C@H]1C(O3)C2OC(=O)N(c1ccccc1)c1ccccc1 (stereo not given in full)  Muscarinic acetylcholine receptor M5 (Homo sapiens)       < 6.00
2  CN1CCCC(OC(=O)N(c2ccccc2)c2ccccc2)C1 (stereo not given)  Muscarinic acetylcholine receptor M5 (Homo sapiens)       < 6.00
3  CN1[C@@H]2CC[C@H]1C[C@@H](Oc1nc3ccccc3n1-c1ccccc1)C2  Muscarinic acetylcholine receptor M5 (Homo sapiens)       < 6.00
4          CN1CC(Oc2nc3ccccc3n2-c2ccccc2)C1  Muscarinic acetylcholine receptor M5 (Homo sapiens)       < 6.00
